Tested on: HL-60 cells
TEST NAME: HL-60 cell growth/proliferation, cells counted with a hemocytometer
Assay type: cell-based, human
REPORTED CONDITIONS: Example 3C; 3 μM; 60 hours; starting density 2×10^5 cells/ml
Would you kindly list cell density for each of these compounds?
Write down the value, and be sure its unit follows.

# return recorded cell density for entry "CCCCCCCCCC(=O)N[C@@H](CO)[C@@H](O)c1ccccc1"
800000 mL⁻¹

# return recorded cell density for entry "CCCCCC(=O)N[C@@H](CO)[C@@H](O)c1ccccc1"
800000 mL⁻¹

# return recorded cell density for entry "CCCCCCCCCCCCCCCCCC(=O)N[C@@H](CO)[C@@H](O)c1ccccc1"
800000 mL⁻¹

# return recorded cell density for entry "CCCCCCCCCCCC(=O)N[C@@H](CO)[C@@H](O)c1ccccc1"
300000 mL⁻¹

# return recorded cell density for entry "CCCCCCCC(=O)N[C@@H](CO)[C@@H](O)c1ccccc1"
800000 mL⁻¹

# return recorded cell density for entry "CCCCCCCCCCCCCCCC(=O)N[C@@H](CO)[C@@H](O)c1ccccc1"
400000 mL⁻¹
